Target: Human CARM1 (PRMT4) (Homo sapiens)
Sequence (Q86X55 with tags, fused parts or gaps isoform Q86X55-1): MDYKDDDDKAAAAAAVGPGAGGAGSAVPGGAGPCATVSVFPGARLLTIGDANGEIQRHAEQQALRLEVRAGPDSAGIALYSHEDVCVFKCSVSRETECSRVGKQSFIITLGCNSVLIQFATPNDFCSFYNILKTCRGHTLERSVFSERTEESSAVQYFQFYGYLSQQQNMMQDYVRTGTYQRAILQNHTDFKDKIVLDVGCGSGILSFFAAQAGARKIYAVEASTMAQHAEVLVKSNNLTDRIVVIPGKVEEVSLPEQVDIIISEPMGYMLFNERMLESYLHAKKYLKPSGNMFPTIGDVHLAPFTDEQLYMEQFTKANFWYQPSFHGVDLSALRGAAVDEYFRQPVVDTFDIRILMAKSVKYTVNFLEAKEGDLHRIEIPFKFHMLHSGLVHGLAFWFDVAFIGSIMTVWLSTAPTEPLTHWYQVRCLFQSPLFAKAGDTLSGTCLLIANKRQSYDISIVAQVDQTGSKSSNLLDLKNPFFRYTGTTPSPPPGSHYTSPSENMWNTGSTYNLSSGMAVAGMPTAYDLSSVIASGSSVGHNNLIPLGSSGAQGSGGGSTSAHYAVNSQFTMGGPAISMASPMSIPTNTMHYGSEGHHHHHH
pIC50: −log10 of the molar value.
measurement_name: pIC50

test_smiles=Cc1c(F)cccc1-c1n[nH]cc1CN(C)CCN measurement_target="Human CARM1 (PRMT4) (Homo sapiens)" value_measured="5.52 to 6.00"
test_smiles=Cc1ccc(-c2n[nH]cc2CN(C)CCN)c(C)c1 measurement_target="Human CARM1 (PRMT4) (Homo sapiens)" value_measured="5.00 to 5.52"
test_smiles=CNCCN(C)Cc1c[nH]nc1-c1ccc(Oc2ccccc2)cc1 measurement_target="Human CARM1 (PRMT4) (Homo sapiens)" value_measured="> 7.00"
test_smiles=CN(CCN)Cc1n[nH]cc1-c1ccc(C#N)cc1 measurement_target="Human CARM1 (PRMT4) (Homo sapiens)" value_measured="5.00 to 5.52"
test_smiles=CNCCN(C)Cc1c[nH]nc1-c1cccc([N+](=O)[O-])c1 measurement_target="Human CARM1 (PRMT4) (Homo sapiens)" value_measured="5.52 to 6.00"
test_smiles=CN(CCN)Cc1n[nH]cc1-c1ccc(C2CCOCC2)cc1 measurement_target="Human CARM1 (PRMT4) (Homo sapiens)" value_measured="5.00 to 5.52"
test_smiles=CN(CCN)Cc1c(-c2ccc(C#N)cc2)cnn1C measurement_target="Human CARM1 (PRMT4) (Homo sapiens)" value_measured="< 5.00"
test_smiles=COCCn1ncc(CN(C)CCN)c1-c1ccc(F)cc1 measurement_target="Human CARM1 (PRMT4) (Homo sapiens)" value_measured="< 5.00"
test_smiles=CNCCN(C)Cc1cnn(CC(=O)OC)c1-c1ccc(OC(C)C)cc1 measurement_target="Human CARM1 (PRMT4) (Homo sapiens)" value_measured="5.00 to 5.52"
test_smiles=CN(CCN)Cc1c[nH]nc1-c1ccccc1 measurement_target="Human CARM1 (PRMT4) (Homo sapiens)" value_measured="5.52 to 6.00"

----------
Listed compounds paired with reported IC50
Target: UniProtKB Q86X55
measurement_name: IC50

test_smiles=CN(CCN)Cc1c[nH]nc1-c1ccc(F)cc1Cl measurement_name=IC50 value_measured="3.01 to 10 µM"
test_smiles=Cc1cccc(-c2n[nH]cc2CN(C)CCN)c1 measurement_name=IC50 value_measured="1.01 to 3 µM"
test_smiles=CN(CCN)Cc1cnn(CC2COC2)c1-c1ccc(F)cc1 measurement_name=IC50 value_measured="> 10 µM"
test_smiles=CN(CCN)Cc1cn(CC2COC2)nc1-c1ccc(F)cc1 measurement_name=IC50 value_measured="> 10 µM"
test_smiles=Cc1ccc(Cl)c(-c2n[nH]cc2CN(C)CCN)c1 measurement_name=IC50 value_measured="> 10 µM"
test_smiles=CN(CCN)Cc1c[nH]nc1-c1cc(Cl)ccc1F measurement_name=IC50 value_measured="3.01 to 10 µM"
test_smiles=Cc1cc(F)ccc1-c1n[nH]cc1CN(C)CCN measurement_name=IC50 value_measured="3.01 to 10 µM"
test_smiles=CNCCN(C)Cc1cn(Cc2ccccc2)nc1-c1ccc(OC(C)C)cc1 measurement_name=IC50 value_measured="0.101 to 1 µM"
test_smiles=CN(CCN)Cc1c[nH]nc1-c1cc(F)cc(Cl)c1 measurement_name=IC50 value_measured="0.101 to 1 µM"
test_smiles=CNCCN(C)Cc1c[nH]nc1-c1ccc(OC)c(F)c1 measurement_name=IC50 value_measured="1.01 to 3 µM"

----------
The next entries give measured pIC50 for Full-length human PRMT6 (Homo sapiens).
pIC50: −log10 of the molar value.
measurement_name: pIC50

test_smiles=Cc1[nH]nc(-c2ccc(F)cc2)c1CN(C)CCN measurement_target="Full-length human PRMT6 (Homo sapiens)" measurement_name=pIC50 value_measured="> 7.00"
test_smiles=CN(CCN)Cc1c[nH]nc1-c1ccc(Oc2ccccc2)c(C(=O)N(C)C)c1 measurement_target="Full-length human PRMT6 (Homo sapiens)" measurement_name=pIC50 value_measured="> 7.00"
test_smiles=CNCCN(C)Cc1c[nH]nc1-c1ccc(CC#N)cc1 measurement_target="Full-length human PRMT6 (Homo sapiens)" measurement_name=pIC50 value_measured="> 7.00"
test_smiles=CNCCN(C)Cc1cnn(C)c1-c1ccc(Oc2ccccc2)cc1 measurement_target="Full-length human PRMT6 (Homo sapiens)" measurement_name=pIC50 value_measured="> 7.00"
test_smiles=CCCN(CCN)Cc1c[nH]nc1-c1ccc(F)cc1 measurement_target="Full-length human PRMT6 (Homo sapiens)" measurement_name=pIC50 value_measured="5.52 to 6.00"
test_smiles=CN(CCN)Cc1c[nH]nc1-c1ccc(Oc2cccc(F)c2)cc1 measurement_target="Full-length human PRMT6 (Homo sapiens)" measurement_name=pIC50 value_measured="> 7.00"
test_smiles=CN(CCN)Cc1cnn(CCO)c1-c1ccc(F)cc1 measurement_target="Full-length human PRMT6 (Homo sapiens)" measurement_name=pIC50 value_measured="6.00 to 7.00"
test_smiles=COCCn1ncc(CN(C)CCN)c1-c1ccc(F)cc1 measurement_target="Full-length human PRMT6 (Homo sapiens)" measurement_name=pIC50 value_measured="6.00 to 7.00"
test_smiles=CC(=O)c1cccc(-c2n[nH]cc2CN(C)CCN)c1 measurement_target="Full-length human PRMT6 (Homo sapiens)" measurement_name=pIC50 value_measured="> 7.00"
test_smiles=COc1cc(F)ccc1-c1n[nH]cc1CN(C)CCN measurement_target="Full-length human PRMT6 (Homo sapiens)" measurement_name=pIC50 value_measured="6.00 to 7.00"

----------
Molecular target: Full-length human PRMT8 (Homo sapiens, UniProt Q9NR22)
Construct: Full-length human PRMT8 (NM_019854.4) isoform 1 transcript clone
Sequence (Q9NR22 whole entry, canonical isoform): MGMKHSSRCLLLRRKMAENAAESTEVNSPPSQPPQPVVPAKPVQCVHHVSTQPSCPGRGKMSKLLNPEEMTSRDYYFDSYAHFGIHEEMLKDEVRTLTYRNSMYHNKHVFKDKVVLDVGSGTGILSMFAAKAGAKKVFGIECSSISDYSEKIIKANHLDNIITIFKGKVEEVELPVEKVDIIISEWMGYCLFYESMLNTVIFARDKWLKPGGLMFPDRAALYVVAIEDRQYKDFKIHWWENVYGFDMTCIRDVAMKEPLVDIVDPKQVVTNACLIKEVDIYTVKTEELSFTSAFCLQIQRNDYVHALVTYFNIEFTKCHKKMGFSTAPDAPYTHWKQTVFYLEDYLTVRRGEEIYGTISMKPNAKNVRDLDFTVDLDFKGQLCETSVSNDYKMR
Assay: PRMT8 biochemical assay (3H-SAM Flashplate, peptide substrate)
measurement_name: IC50

molecule=CNCCN(C)Cc1cn(C)nc1-c1ccc(Oc2ccccc2)cc1 measurement_name=IC50 value_measured="101 to 1000 nM"
molecule=CNCCN(C)Cc1c[nH]nc1-c1ccc2ccccc2c1 measurement_name=IC50 value_measured="101 to 1000 nM"
molecule=CN(CCN)Cc1c[nH]nc1-c1cccc(F)c1 measurement_name=IC50 value_measured="101 to 1000 nM"
molecule=CNCCN(C)Cc1cn(C2CC2)nc1-c1ccc(F)cc1 measurement_name=IC50 value_measured="> 10000 nM"
molecule=CNCCN(C)Cc1c[nH]nc1-c1c(OC)cccc1OC measurement_name=IC50 value_measured="> 10000 nM"
molecule=CN(CCN)Cc1c[nH]nc1-c1ccc(OC(F)(F)F)cc1 measurement_name=IC50 value_measured="< 100 nM"
molecule=CCOC(=O)c1cccc(-c2n[nH]cc2CN(C)CCN)c1 measurement_name=IC50 value_measured="101 to 1000 nM"
molecule="CNCCN(C)Cc1cn(CCC(O)CO)nc1-c1ccc(F)cc1 (stereo not shown)" measurement_name=IC50 value_measured="3010 to 10000 nM"
molecule=Cc1ccc(-c2n[nH]cc2CN(C)CCN)c(Cl)c1 measurement_name=IC50 value_measured="1010 to 3000 nM"
molecule=CN(CCN)Cc1cnn(CC2COC2)c1-c1ccc(F)cc1 measurement_name=IC50 value_measured="> 10000 nM"
molecule=CN(CCN)Cc1c[nH]nc1-c1ccc2c(c1)NC(=O)CO2 measurement_name=IC50 value_measured="3010 to 10000 nM"
molecule=CCn1cc(CN(C)CCNC)c(-c2ccc(F)cc2)n1 measurement_name=IC50 value_measured="3010 to 10000 nM"
molecule=COc1ccc(-c2n[nH]cc2CN(C)CCN)c(Cl)c1 measurement_name=IC50 value_measured="1010 to 3000 nM"
molecule=COc1ccc(-c2n[nH]cc2CN(C)CCN)cc1Cl measurement_name=IC50 value_measured="101 to 1000 nM"
molecule=CN(CCN)Cc1c[nH]nc1-c1ccc(Oc2ccc(F)cc2)cc1 measurement_name=IC50 value_measured="< 100 nM"
molecule=CNCCN(C)Cc1cnn(C)c1-c1ccc(Oc2ccccc2)cc1 measurement_name=IC50 value_measured="101 to 1000 nM"
molecule=NCCN(Cc1c[nH]nc1-c1ccc(F)cc1)C1CC1 measurement_name=IC50 value_measured="1010 to 3000 nM"
molecule=CNC(=O)c1cc(-c2n[nH]cc2CN(C)CCN)ccc1Oc1ccccc1 measurement_name=IC50 value_measured="101 to 1000 nM"
molecule=CNCCN(C)Cc1c[nH]nc1-c1cc(Cl)ccc1OC measurement_name=IC50 value_measured="> 10000 nM"
molecule=CNCCN(C)Cc1cn[nH]c1-c1cc(F)cc(F)c1 measurement_name=IC50 value_measured="101 to 1000 nM"
molecule=CNCCN(C)Cc1c[nH]nc1-c1ccc(CO)cc1 measurement_name=IC50 value_measured="< 100 nM"
molecule=CN(CCN)Cc1c[nH]nc1-c1ccc(OC2CC2)cc1 measurement_name=IC50 value_measured="< 100 nM"
molecule=CN(CCN)Cc1n[nH]cc1-c1ccc(OC(F)F)cc1 measurement_name=IC50 value_measured="101 to 1000 nM"
molecule=CCNC(=O)c1cccc(-c2n[nH]cc2CN(C)CCNC)c1 measurement_name=IC50 value_measured="1010 to 3000 nM"
molecule=CN(CCN)Cc1c[nH]nc1-c1ccc(C(F)(F)F)cc1F measurement_name=IC50 value_measured="101 to 1000 nM"
molecule=NCCN(CCO)Cc1c[nH]nc1-c1ccc(F)cc1 measurement_name=IC50 value_measured="1010 to 3000 nM"
molecule=CNCCN(C)Cc1c[nH]nc1-c1ccc(OC)cc1 measurement_name=IC50 value_measured="101 to 1000 nM"
molecule=CNCCN(C)Cc1c[nH]nc1-c1ccccc1OC(F)(F)F measurement_name=IC50 value_measured="3010 to 10000 nM"
molecule=CCNC(=O)c1cccc(-c2n[nH]cc2CN(C)CCN)c1 measurement_name=IC50 value_measured="1010 to 3000 nM"
molecule=CN(CCN)Cc1n[nH]cc1-c1ccc(OC2CC2)cc1 measurement_name=IC50 value_measured="101 to 1000 nM"
molecule="CN(CCN)Cc1cnn(CC(O)CO)c1-c1ccc(F)cc1 (stereo not shown)" measurement_name=IC50 value_measured="3010 to 10000 nM"
molecule=CN(CCN)Cc1c[nH]nc1-c1ccc(OCCO)cc1 measurement_name=IC50 value_measured="101 to 1000 nM"
molecule=CC(C)CC(=O)N1CCN(c2ccc(-c3n[nH]cc3CN(C)CCN)cc2)CC1 measurement_name=IC50 value_measured="3010 to 10000 nM"
molecule=CNCCN(C)Cc1c[nH]nc1-c1cccc(OC)c1OC measurement_name=IC50 value_measured="3010 to 10000 nM"
molecule=CNCCN(C)Cc1c[nH]nc1-c1ccc(OCCCOC)c(Cl)c1 measurement_name=IC50 value_measured="101 to 1000 nM"
molecule=CC(C)CN1C(=O)COc2ccc(-c3n[nH]cc3CN(C)CCN)cc21 measurement_name=IC50 value_measured="3010 to 10000 nM"
molecule=CN(CCN)Cc1c[nH]nc1-c1ccc2c(c1)OCC(=O)N2C measurement_name=IC50 value_measured="1010 to 3000 nM"
molecule=CN(CCN)Cc1c[nH]nc1-c1ccc(OC(F)F)cc1 measurement_name=IC50 value_measured="101 to 1000 nM"
molecule=COc1cc(F)ccc1-c1n[nH]cc1CN(C)CCN measurement_name=IC50 value_measured="1010 to 3000 nM"
molecule=CNCCN(C)Cc1c[nH]nc1-c1cccc([N+](=O)[O-])c1 measurement_name=IC50 value_measured="101 to 1000 nM"

Data origin: patent US9346761B2
